target: BDZ-bs (benzodiazepine binding site in GABAA brain receptor); experiment: BDZ-bs binding assay ([3H]-FNZ binding to cerebral cortical membranes); conditions: n= 5 (ligand 1), n= 3 (ligand 2)
recorded.metric: Ki (nM)
Answers are plain numbers, in nM.

In plain terms, Cc1c(O)cc2oc(-c3ccc(O)cc3)cc(=O)c2c1O (single isomer, unassigned) has a documented Ki of 500

Source: patent EP1503771B1
